molecular target: BTK (Homo sapiens (Human), UniProt Q06187); test: Btk in vitro inhibitory activity (one of Method A TR-FRET, Method B electrophoretic mobility shift, Method C radiometric filter binding); type: biochemical; conditions: read-out: Btk (IC50)
Sequence (Q06187 whole entry): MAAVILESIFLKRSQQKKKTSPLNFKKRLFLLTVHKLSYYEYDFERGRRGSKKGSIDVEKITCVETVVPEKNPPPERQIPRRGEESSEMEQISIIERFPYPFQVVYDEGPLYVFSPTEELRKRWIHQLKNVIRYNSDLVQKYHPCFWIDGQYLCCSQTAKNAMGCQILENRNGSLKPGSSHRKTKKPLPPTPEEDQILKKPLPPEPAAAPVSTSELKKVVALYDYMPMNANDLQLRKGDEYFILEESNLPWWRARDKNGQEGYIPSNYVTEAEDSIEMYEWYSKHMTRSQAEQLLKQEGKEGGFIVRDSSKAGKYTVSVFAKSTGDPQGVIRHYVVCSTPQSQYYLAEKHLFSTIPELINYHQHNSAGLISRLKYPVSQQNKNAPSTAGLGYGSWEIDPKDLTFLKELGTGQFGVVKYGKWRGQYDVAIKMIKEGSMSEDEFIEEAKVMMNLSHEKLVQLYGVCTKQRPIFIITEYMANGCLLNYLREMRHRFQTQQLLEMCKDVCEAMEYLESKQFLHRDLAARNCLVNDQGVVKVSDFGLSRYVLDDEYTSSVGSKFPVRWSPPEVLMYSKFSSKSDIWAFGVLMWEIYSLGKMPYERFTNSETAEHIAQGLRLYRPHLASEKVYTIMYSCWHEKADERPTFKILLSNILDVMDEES

>  <compound>
C[C@@H]1[C@H](NC(=O)N(C)C)CCCN1c1cnc(C(N)=O)c(Nc2ccc(C3(C#N)CC3)cc2)n1 [Example 240]

>  <IC50>
< 10 nM

$$$$
>  <compound>
CCC(=O)N[C@@H]1CCCN(c2nnc(C(N)=O)c(Nc3ccc(C4CCN(C5CCCC5)CC4)cc3)n2)C1 [Example 330]

>  <IC50>
< 10 nM

$$$$
>  <compound>
CN(C)C(=O)N[C@@H]1CCCCN(c2cnc(C(N)=O)c(Nc3ccc(C4CCN(C5CCCC5)CC4)cc3)n2)C1 [Example 327]

>  <IC50>
< 10 nM

$$$$
>  <compound>
NC(=O)c1ncc(N2CCC[C@@H](NC(=O)c3cccc(Cl)c3)C2)nc1Nc1ccc(C2CCN(C3CC3)CC2)cc1 [Example 312]

>  <IC50>
< 10 nM

$$$$
>  <compound>
CN(C)C(=O)N[C@@H]1CCCN(c2cnc(C(N)=O)c(Nc3ccc(C4(C)CCNCC4)cc3)n2)C1 [Example 221]

>  <IC50>
< 10 nM

$$$$
>  <compound>
NC(=O)c1ncc(N2CCC[C@@H](NC(=O)c3ccc(Cl)cc3)C2)nc1Nc1ccc(C2CCN(C3CC3)CC2)cc1 [Example 311]

>  <IC50>
< 10 nM

$$$$
>  <compound>
CCOc1ccc(C(=O)N[C@@H]2CCCN(c3nnc(C(N)=O)c(Nc4ccc(C(=N)N(C)C)cc4)n3)C2)cc1 [Example 342]

>  <IC50>
10 to 100 nM

$$$$
>  <compound>
CN1CCN([C@@H]2CCCN(c3cnc(C(N)=O)c(Nc4ccc(C5(C(N)=O)CCN(C6CCCC6)CC5)cc4)n3)C2)C1=O [Example 272]

>  <IC50>
< 10 nM

$$$$
>  <compound>
NC(=O)c1nnc(N2CCC[C@@H](NC(=O)N3CCCCC3)C2)nc1Nc1ccc(C2CCN(C3CCCC3)CC2)cc1 [Example 336]

>  <IC50>
< 10 nM

$$$$
>  <compound>
CN(C)C(=O)N[C@@H]1CCCN(c2cnc(C(N)=O)c(Nc3ccc(C(C)(C)C(N)=O)cc3)n2)C1 [Example 198]

>  <IC50>
10 to 100 nM

$$$$
>  <compound>
CN(C)C(=O)N[C@@H]1CCCN(c2cnc(C(N)=O)c(Nc3ccc(C4CCN(C(=O)CC#N)CC4)cc3)n2)C1 [Example 153]

>  <IC50>
< 10 nM

$$$$
>  <compound>
CC(C)N1CCC(C)(c2ccc(Nc3nc(N4CCC[C@@H](N5CCN(C)C5=O)C4)cnc3C(N)=O)cc2)CC1 [Example 264]

>  <IC50>
< 10 nM

$$$$
>  <compound>
COc1ccc(C(=O)N[C@@H]2CCCN(c3cnc(C(N)=O)c(Nc4ccc5ncsc5c4)n3)C2)cc1 [Example 121]

>  <IC50>
10 to 100 nM

$$$$
>  <compound>
CCN1CCC(c2ccc(Nc3nc(N4CCC[C@@H](NC(=O)c5ccc(OC)cc5)C4)cnc3C(N)=O)cc2)CC1 [Example 132]

>  <IC50>
< 10 nM

$$$$
>  <compound>
NC(=O)c1ncc(N2CCC[C@@H](NC(=O)c3ccc4nccn4c3)C2)nc1Nc1ccc(C2CCOCC2)cc1 [Example 325]

>  <IC50>
< 10 nM

$$$$
>  <compound>
CCC(=O)N1CCC(C)(c2ccc(Nc3nc(N4CCC[C@@H](N5CCN(C)C5=O)[C@H]4C)cnc3C(N)=O)cc2)CC1 [Example 255]

>  <IC50>
< 10 nM

$$$$
>  <compound>
CCN(CC)C(=O)N[C@@H]1CCCN(c2cnc(C(N)=O)c(Nc3ccc(C4CCN(C)CC4)cc3)n2)C1 [Example 167]

>  <IC50>
< 10 nM

$$$$
>  <compound>
NC(=O)c1nnc(N2CCC[C@@H](NC(=O)c3nc4ccccc4o3)C2)nc1Nc1ccc(C(=O)N2CCOCC2)cc1 [Example 97]

>  <IC50>
10 to 100 nM

$$$$
>  <compound>
NC(=O)c1ncc(N2CCC[C@@H](NC(=O)c3cccnc3)C2)nc1Nc1ccc(C2CCN(C3CCCC3)CC2)cc1 [Example 304]

>  <IC50>
< 10 nM

$$$$
>  <compound>
CN(C)C(=O)N[C@@H]1CCCN(c2cnc(C(N)=O)c(Nc3ccc(C4(C)CCN(C(=O)N(C)C)CC4)cc3)n2)C1 [Example 223]

>  <IC50>
< 10 nM

$$$$
>  <compound>
CN(C)C(=O)N[C@@H]1CCCN(c2cnc(C(N)=O)c(Nc3ccc(C4CCN(C5CCOCC5)CC4)cc3)n2)C1 [Example 176]

>  <IC50>
< 10 nM

$$$$
>  <compound>
NC(=O)c1ncc(N2CCC[C@H]3NCC[C@H]32)nc1Nc1ccc(C2CCN(C3CCCC3)CC2)cc1 [Example 286]

>  <IC50>
10 to 100 nM

$$$$
>  <compound>
NC(=O)c1ncc(N2CCC[C@@H](NC(=O)c3ccc(F)cc3)C2)nc1Nc1ccc(C2CCN(C3CCCC3)CC2)cc1 [Example 320]

>  <IC50>
< 10 nM

$$$$
>  <compound>
CCN1CCN([C@@H]2CCCN(c3cnc(C(N)=O)c(Nc4ccc(C5(C)CCN(C6CC6)CC5)cc4)n3)C2)C1=O [Example 276]

>  <IC50>
< 10 nM

$$$$
>  <compound>
CCOc1ccc(Nc2nc(N3CCC[C@@H](NC(=O)c4ccc(OC)cc4)C3)cnc2C(N)=O)cc1 [Example 111]

>  <IC50>
10 to 100 nM

$$$$
>  <compound>
NC(=O)c1nnc(N2CCC[C@@H](NC(=O)c3nc4ccccc4s3)C2)nc1Nc1ccc(C(=O)N2CCOCC2)cc1 [Example 94]

>  <IC50>
< 10 nM

$$$$
>  <compound>
NC(=O)c1ncc(N2CCC[C@@H](NC(=O)C3CC3)C2)nc1Nc1ccc(C2CCN(C3CCCC3)CC2)cc1 [Example 299]

>  <IC50>
< 10 nM

$$$$
>  <compound>
CCCOc1ccc(C(=O)N[C@@H]2CCCN(c3nnc(C(N)=O)c(Nc4ccc(C(=O)N5CCOCC5)cc4)n3)C2)cc1 [Example 89]

>  <IC50>
< 10 nM

$$$$

----------
target: BTK (Homo sapiens (Human), UniProt Q06187); test: Btk in vitro inhibitory activity (one of Method A TR-FRET, Method B electrophoretic mobility shift, Method C radiometric filter binding); format: biochemical; conditions: determined using one of the methods of Example 355a, 355b and 355c; read-out: BTK IC50

>  <molecule>
NC(=O)c1ncc(N2CCC[C@@H](NC(=O)c3cncc(F)c3)C2)nc1Nc1ccc(C2CCN(C3CCCC3)CC2)cc1

>  <system tested>
BTK (Homo sapiens (Human), UniProt Q06187)

>  <IC50>
< 10 nM

$$$$
>  <molecule>
NC(=O)c1ncc(N2CCC[C@@H](NC(=O)c3ccc4nccn4c3)C2)nc1Nc1ccc(C2CCOCC2)cc1

>  <system tested>
BTK (Homo sapiens (Human), UniProt Q06187)

>  <IC50>
< 10 nM

$$$$
>  <molecule>
Cc1cc(Nc2nc(N[C@@H]3CCCCN(C(=O)N(C)C)C3)cnc2C(N)=O)sn1

>  <system tested>
BTK (Homo sapiens (Human), UniProt Q06187)

>  <IC50>
10 to 100 nM

$$$$
>  <molecule>
CN(C)C(=O)N(C)[C@@H]1CCCN(c2cnc(C(N)=O)c(Nc3ccc(N4CCS(=O)(=O)CC4)cc3)n2)C1

>  <system tested>
BTK (Homo sapiens (Human), UniProt Q06187)

>  <IC50>
10 to 100 nM

$$$$
>  <molecule>
N#CC1(C(=O)N[C@@H]2CCCN(c3nnc(C(N)=O)c(Nc4ccc(C(=O)N5CCOCC5)cc4)n3)C2)CC1

>  <system tested>
BTK (Homo sapiens (Human), UniProt Q06187)

>  <IC50>
10 to 100 nM

$$$$
>  <molecule>
CN(C)S(=O)(=O)N[C@@H]1CCCN(c2cnc(C(N)=O)c(Nc3ccc(C4CCN(C5CCCC5)CC4)cc3)n2)C1

>  <system tested>
BTK (Homo sapiens (Human), UniProt Q06187)

>  <IC50>
10 to 100 nM

$$$$
>  <molecule>
COc1ccc(C(=O)N[C@@H]2CCCN(c3cnc(C(N)=O)c(Nc4ccc(N5CCOCC5)cc4)n3)C2)cc1

>  <system tested>
BTK (Homo sapiens (Human), UniProt Q06187)

>  <IC50>
< 10 nM

$$$$
>  <molecule>
NC(=O)c1nnc(N2CCC[C@@H](N3Cc4ccccc4C3=O)C2)nc1Nc1ccc(C(=O)N2CCOCC2)cc1

>  <system tested>
BTK (Homo sapiens (Human), UniProt Q06187)

>  <IC50>
10 to 100 nM

$$$$
>  <molecule>
NC(=O)c1ncc(N2CC[C@H]3CCN[C@H]3C2)nc1Nc1ccc(C2CCN(C3CCCC3)CC2)cc1 (racemic)

>  <system tested>
BTK (Homo sapiens (Human), UniProt Q06187)

>  <IC50>
100 to 1000 nM

$$$$
